species on record: Rattus norvegicus; experiment: Open TG-GATES - Regimen: Single; format: toxicity, organism-based, Sprague-Dawley; set-up: regimen Single, gender Male, age 6 weeks; conditions: in vivo, po, 0 mg/kg, 3 h, tissue Blood, route gavage, dose level Control

- COMPOUND: "C#C[C@]1(O)CC[C@H]2[C@@H]3CCC4=Cc5oncc5C[C@]4(C)[C@H]3CC[C@@]21C"
  PT (s): 15.8
- COMPOUND: "CN(C)[C@@H]1C(O)=C(C(N)=O)C(=O)[C@@]2(O)C(O)=C3C(=O)c4c(O)cccc4[C@@](C)(O)[C@H]3C[C@@H]12"
  PT (s): 12.1
- COMPOUND: "CN1C(C(=O)Nc2ccccn2)=C(O)c2sc(Cl)cc2S1(=O)=O"
  PT (s): 11.9
- COMPOUND: "CC(=O)Nc1nnc(S(N)(=O)=O)s1 [ACETAZOLAMIDE]"
  PT (s): 16.5
- COMPOUND: "CC(CN1c2ccccc2Sc2ccccc21)N(C)C (stereo not given)"
  PT (s): 16.4

---

species: Rattus norvegicus; assay: Open TG-GATES - Regimen: Daily Repeat; format: toxicity, organism-based, Sprague-Dawley; parameters: regimen Daily Repeat, gender Male, age 6 weeks; settings: in vivo, po, 0 mg/kg, […], tissue Blood, route gavage, dose level Control, time 7 day

- MOLECULE_SMILES: "Clc1c(Cl)c(Cl)c(Cl)c(Cl)c1Cl"
  Ret (%): 5.9
- MOLECULE_SMILES: "CCOC(=O)[C@H](CCc1ccccc1)N[C@@H](C)C(=O)N1CCC[C@H]1C(=O)O"
  Ret (%): 6.5
- MOLECULE_SMILES: "C#C[C@]1(O)CC[C@H]2[C@@H]3CCC4=Cc5oncc5C[C@]4(C)[C@H]3CC[C@@]21C"
  Ret (%): 5.9
- MOLECULE_SMILES: "CN(C)[C@@H]1C(O)=C(C(N)=O)C(=O)[C@@]2(O)C(O)=C3C(=O)c4c(O)cccc4[C@@](C)(O)[C@H]3C[C@@H]12"
  Ret (%): 6.6

---

species: Rattus norvegicus; test: Open TG-GATES - Regimen: Daily Repeat; type: toxicity, organism-based, Sprague-Dawley; parameters: regimen Daily Repeat, gender Male, age 6 weeks; settings: in vivo, po, 0 mg/kg, […], tissue Blood, route gavage, dose level Control, time 28 day

- MOLECULE_SMILES: "C#C[C@]1(O)CC[C@H]2[C@@H]3CCC4=Cc5oncc5C[C@]4(C)[C@H]3CC[C@@]21C"
  Eos (%): 1
- MOLECULE_SMILES: "CN(C)[C@@H]1C(O)=C(C(N)=O)C(=O)[C@@]2(O)C(O)=C3C(=O)c4c(O)cccc4[C@@](C)(O)[C@H]3C[C@@H]12"
  Eos (%): 1.4
- MOLECULE_SMILES: "CN1C(C(=O)Nc2ccccn2)=C(O)c2sc(Cl)cc2S1(=O)=O"
  Eos (%): 1.2
- MOLECULE_SMILES: "Cc1cccc(Nc2ccccc2C(=O)O)c1C"
  Eos (%): 1

---

species: Rattus norvegicus; assay: Open TG-GATES - Regimen: Daily Repeat; assay type: toxicity, organism-based, Sprague-Dawley; parameters: regimen Daily Repeat, gender Male, age 6 weeks; conditions: in vivo, po, 0 mg/kg, 72 h, tissue Plasma, route gavage, dose level Control, time 3 day
Label rule, in plain words: A/G of 2 and up is Yes, under 2 is No.

- MOLECULE: "CC(CN1c2ccccc2Sc2ccccc21)N(C)C (stereo unspecified) [PROMETHAZINE]"
  LABEL_VALUE: "No"
- MOLECULE: "Clc1c(Cl)c(Cl)c(Cl)c(Cl)c1Cl [PERCHLOROBENZENE]"
  LABEL_VALUE: "Yes"
- MOLECULE: "Cc1cccc(Nc2ccccc2C(=O)O)c1C [MEFENAMIC ACID]"
  LABEL_VALUE: "No"
- MOLECULE: "CN1C(C(=O)Nc2ccccn2)=C(O)c2sc(Cl)cc2S1(=O)=O [LORNOXICAM]"
  LABEL_VALUE: "No"
- MOLECULE: "CCOC(=O)[C@H](CCc1ccccc1)N[C@@H](C)C(=O)N1CCC[C@H]1C(=O)O"
  LABEL_VALUE: "No"
- MOLECULE: "CN(C)[C@@H]1C(O)=C(C(N)=O)C(=O)[C@@]2(O)C(O)=C3C(=O)c4c(O)cccc4[C@@](C)(O)[C@H]3C[C@@H]12 [TETRACYCLINE]"
  LABEL_VALUE: "Yes"

---

species: Rattus norvegicus; assay: Open TG-GATES - Regimen: Single; assay type: toxicity, organism-based, Sprague-Dawley; parameters: regimen Single, gender Male, age 6 weeks; settings: in vivo, po, 0 mg/kg, 3 h, tissue Blood, route gavage, dose level Control

- COMPOUND: "Cc1cccc(Nc2ccccc2C(=O)O)c1C [MEFENAMIC ACID]"
  Hb: "13.2 g/dL"
- COMPOUND: "CC(CN1c2ccccc2Sc2ccccc21)N(C)C (centres undefined) [PROMETHAZINE]"
  Hb: "13 g/dL"
- COMPOUND: "Clc1c(Cl)c(Cl)c(Cl)c(Cl)c1Cl [PERCHLOROBENZENE]"
  Hb: "13.5 g/dL"
- COMPOUND: "C1CCC(C(CC2CCCCN2)C2CCCCC2)CC1 (centres undefined) [PERHEXILINE]"
  Hb: "13.5 g/dL"
- COMPOUND: "C#C[C@]1(O)CC[C@H]2[C@@H]3CCC4=Cc5oncc5C[C@]4(C)[C@H]3CC[C@@]21C [DANAZOL]"
  Hb: "13.2 g/dL"
- COMPOUND: "CN1C(C(=O)Nc2ccccn2)=C(O)c2sc(Cl)cc2S1(=O)=O [LORNOXICAM]"
  Hb: "13.4 g/dL"
- COMPOUND: "COc1cc([C@@H]2c3cc4c(cc3[C@@H](O[C@@H]3O[C@@H]5CO[C@@H](C)O[C@H]5[C@H](O)[C@H]3O)[C@H]3COC(=O)[C@H]23)OCO4)cc(OC)c1O [ETOPOSIDE]"
  Hb: "13.3 g/dL"
- COMPOUND: "CCOC(=O)[C@H](CCc1ccccc1)N[C@@H](C)C(=O)N1CCC[C@H]1C(=O)O"
  Hb: "13.1 g/dL"
- COMPOUND: "CN(C)[C@@H]1C(O)=C(C(N)=O)C(=O)[C@@]2(O)C(O)=C3C(=O)c4c(O)cccc4[C@@](C)(O)[C@H]3C[C@@H]12 [TETRACYCLINE]"
  Hb: "13.1 g/dL"

---

species: Rattus norvegicus; experiment: Open TG-GATES - Regimen: Daily Repeat; assay type: toxicity, organism-based, Sprague-Dawley; parameters: regimen Daily Repeat, gender Male, age 6 weeks; details: in vivo, po, 0 mg/kg, […], tissue Blood, route gavage, dose level Control, time 28 day
Form field: RBC (one value per entry).
MEASURED_ENDPOINT: RBC (x10_4/ul)

- COMPOUND: "CC(=O)Nc1nnc(S(N)(=O)=O)s1 [ACETAZOLAMIDE]"
  RESULT_UNITS: "x10_4/ul"
  NUMBER: 791.4
- COMPOUND: "C#C[C@]1(O)CC[C@H]2[C@@H]3CCC4=Cc5oncc5C[C@]4(C)[C@H]3CC[C@@]21C [DANAZOL]"
  RESULT_UNITS: "x10_4/ul"
  NUMBER: 740
- COMPOUND: "O=C(O)Cc1ccccc1Nc1c(Cl)cccc1Cl [DICLOFENAC]"
  RESULT_UNITS: "x10_4/ul"
  NUMBER: 801.6
- COMPOUND: "C1CCC(C(CC2CCCCN2)C2CCCCC2)CC1 (stereo not given) [PERHEXILINE]"
  RESULT_UNITS: "x10_4/ul"
  NUMBER: 629
- COMPOUND: "Clc1c(Cl)c(Cl)c(Cl)c(Cl)c1Cl [PERCHLOROBENZENE]"
  RESULT_UNITS: "x10_4/ul"
  NUMBER: 783.8
- COMPOUND: "Cc1cccc(Nc2ccccc2C(=O)O)c1C [MEFENAMIC ACID]"
  RESULT_UNITS: "x10_4/ul"
  NUMBER: 763.4
- COMPOUND: "CN(C)[C@@H]1C(O)=C(C(N)=O)C(=O)[C@@]2(O)C(O)=C3C(=O)c4c(O)cccc4[C@@](C)(O)[C@H]3C[C@@H]12 [TETRACYCLINE]"
  RESULT_UNITS: "x10_4/ul"
  NUMBER: 753.4
- COMPOUND: "CCOC(=O)[C@H](CCc1ccccc1)N[C@@H](C)C(=O)N1CCC[C@H]1C(=O)O"
  RESULT_UNITS: "x10_4/ul"
  NUMBER: 797.4
- COMPOUND: "CN1C(C(=O)Nc2ccccn2)=C(O)c2sc(Cl)cc2S1(=O)=O [LORNOXICAM]"
  RESULT_UNITS: "x10_4/ul"
  NUMBER: 784.8
- COMPOUND: "CC(CN1c2ccccc2Sc2ccccc21)N(C)C (stereo not given) [PROMETHAZINE]"
  RESULT_UNITS: "x10_4/ul"
  NUMBER: 760.2
